assay-details: protein stability index of a GFP-peptide fusion (GPS, HEK-293T) (PSI 1-6); higher = more stable;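 further: 24-mer peptide tiles fused after GFP, lentivirally expressed, FACS-sorted into six equal bins by GFP/DsRed ratio, decoded by Illumina sequencing, PSI is the read-weighted mean bin number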
test-settings: treatment: DMSO; c terminus: a fixed tail appended
Kindly state protein stability index for each of the entries shown.
One number for each entry.

Sample records with protein stability index:
sequence-text	protein stability index
PIYGLRQSILLNTRLQDCYVDSPA [C22orf31]	2.69
RANRGILQQERQRLGQRQPPPSEP [DNAJC4]	4.79
SRESSKPRAVLKPRRVCVGGKRRR [PPP2R2C]	4.94
RSALWCLGLNAAFWFFALTSLRLV [RETREG3]	2.91
GKGWKATRLFHDSAVTSVRILQDE [DCAF4]	3.39
VSAATQLRHFFLVEDLVDSLKLAL [RTN2]	2.56
INQEELRALEEVEMKLQKNFLTQR [C10orf62]	3.66
TFNPHKRISAFRALQHSYLHKDEG [CDK4]	2.87
LPETLNSPLLETFSDLQVYSYRRL [SLC22A15]	2.4
YLRCIQSEVSFEGAYGNLKRLYDK [SMG5]	2.61

Please supply protein stability index for each of the following items, keeping them in order.
1. ELQLEAANETYENNFDNLDFDLDL [ATF6]
2. YHNAGTQTVPKRIPERLSIFCRDT [IQUB]
3. ECDNMLMLLSVSQSMSEEEREKVT [SEPHS2]

Reply:
[4.76, 2.51, 4.58]

---

Kindly state protein stability index for each of the entries shown.
assay-details: protein stability index of a GFP-peptide fusion (GPS, HEK-293T) (PSI 1-6); higher = more stable
test-settings: treatment: DMSO; c terminus: a fixed tail appended
Answers are plain numbers.

sequence-text	protein stability index
IGTPPSVLKRQRKRRVALSPVTEN [MYBL2]	4.22
TVDGLHFNSTYNARVKAFNKTGVS [TRIM9]	3.17

Please supply protein stability index for each of the following items, keeping them in order.
1. MAAESGELIGACEFMKDRLYFATL [CDC14A]
2. GKMVEEVDGRATQKLIVNLKPEKS [PTPRD]
3. GPGDSQGRKRRQTSMTDFYHSKRR [CDKN1A]
4. SILFGFWTSFICDTYIVLAWISKI [SMIM2]

Reply:
[2.53, 4.69, 3.62, 3.15]

---

assay-details: protein stability index of a GFP-peptide fusion (GPS, HEK-293T) (PSI 1-6); higher = more stable
test-settings: treatment: DMSO; c terminus: a fixed tail appended
measurement-kind: protein stability index
Numbers only.

sequence-text	protein stability index
SPAPLDTCPSSSTASSISSSGGSS [DYRK1B]	5.33
ISAEGFTDIDIDTLCAVLERDTLS [BTBD1]	2.48
IRLYGLQAGRLLWEQELYSQLVYS [WAS]	3.11
REALTRLQELCYQWLRPHVSTKEQ [ZSCAN9]	1.99
SSSSSASSSASSSFSEEGAVGYSS [NFE2L1]	5.25
VLALADEAGYYFFNGNYKVDSPKN [ADAMTSL2]	2.7
YSSGSYDSIKTEVSGCPEDLTVGR [NOL4L]	4.49
TVDKQNISLWPREPPPKSGPSLVP [CD207]	3.84
KLSPLRLSVSNNQEPDFIDDIEEK [KMT2E]	4.9
ASDLSSEEGWRLFKIDKEYLLKMA [SAT1]	2.42

Please supply protein stability index for each of the following items, keeping them in order.
1. AGIREAKAKQEKVSAQYLSEIEMA [FLOT1]
2. KFLAFSGPHPKSKIENGYPLHAPE [CDC14A]
3. AINNLVLQGCSSIGLRLVLEYLYT [KLHL14]
4. VLCPECENPETDLHVNPKKQTIGN [EIF5]
5. NMSKEDAMVEFVKLLNRCCHLFST [ACBD3]
6. MSIMGNVLRFLPAFVRMKQLIEEG [GFOD1]
7. DRLASNVAKRKSSMPQKFLGDKGL [IKZF1]
8. IYCGAGVQKDHENYMKILLKVGGI [PCMTD1]

Reply:
1. 4.63
2. 3.23
3. 3.15
4. 4.3
5. 2.24
6. 2.31
7. 3.95
8. 2.26
